- assay.details: Total clearance in Rattus norvegicus Sprague-Dawley (rat) at 5 mg/kg, iv
- Format: ADME, organism-based
- Parameters: dose 5 mg/kg, route intravenous
- condition.description: in vivo
reported.endpoint: clearance (mL/min/kg)

{"columns": ["query.smiles", "experimental.result"],
 "data": [
  ["COc1ccc(-c2coc3cc(O)cc(O)c3c2=O)cc1", 262]
]}

====

- assay.details: Apparent volume of distribution in Rattus norvegicus Sprague-Dawley (rat) at 5 mg/kg, iv
- Format: ADME, organism-based
- Design: dose 5 mg/kg, route intravenous
- condition.description: in vivo, read-out: Vd(app)

{"columns": ["query.smiles", "Vd / L/kg"],
 "data": [
  ["COc1ccc(-c2coc3cc(O)cc(O)c3c2=O)cc1", 10.6]
]}
